- test.name: Volume of distribution at steady state in Wistar Han rat at 1 mg/kg, iv or 2 mg/kg, po
- Assay type: ADME, organism-based
- recorded.conditions: in vivo, read-out: Vdss
measured.quantity: Vd (L/kg)
Provide only the numeric value, understood in L/kg.

Prompt: Please list Vd recorded for the molecule C[C@](O)(c1cncc(-c2nc3ccc(F)cn3c2C2CC2)c1)C(F)(F)F
Response: 0.82

----------
- test.name: in vitro
- recorded.conditions: human, liver microsomes
measured.quantity: remaining at 0.5 h, 1 µM (%)
Output spec: scalar in %, unitless text.

Prompt: Return the recorded remaining at 0.5 h, 1 µM value; entry: C[C@](O)(c1cncc(-c2nc3ccc(F)cn3c2C2CC2)c1)C(F)(F)F
Response: 88

Prompt: Complete the entry with remaining at 0.5 h, 1 µM for Fc1cncc(-c2nc3ccc(F)cn3c2C2CC2)c1
Response: 93

Prompt: Indicate the recorded remaining at 0.5 h, 1 µM value for this molecule: CCc1c(F)cncc1-c1nc2ccc(F)cn2c1C1CC1
Response: 37

Others:
Prompt: Specify reported remaining at 0.5 h, 1 µM for the molecule shown: C[C@@](O)(c1cncc(-c2nc3ccc(F)cn3c2C2CC2)c1)C(F)(F)F
Response: 96

Prompt: Write down remaining at 0.5 h, 1 µM measured for item Fc1cncc(-c2nc3cc(F)c(Cl)cn3c2C2CC2)c1
Response: 93
